test system: antibodies in sera from SARS patients (sera 1a, 1b, 2, 6, 37, 62, London, SARS-yellow, SARS-green); assay type: binding, human
Can you tell me Binding of serum London to linear peptides of protein X1 of SARS-CoV Urbani for the items I'm about to list?
Give bare numbers.

| sequence.data | value.reported |
| --- | --- |
| FLQCINACRIIMRCW | 0.3 |
| RWQLALYKGFQFICN | 0.3 |
| KRWQLALYKGFQFIC | 0.2 |
| SHLLLVAAGMEAQFL | 0.3 |
| IENATFFIFNKLVKD | 0.2 |
| YNSVTDTIVVTEGDG | 0.2 |

Fill in Binding of serum London to linear peptides of protein X1 of SARS-CoV Urbani for each of the 8 sequences listed.
1. QFLYLYALIYFLQCI
2. QSATKIIALNKRWQL
3. LNKRWQLALYKGFQF
4. YQLESTQITTDTGIE
5. LQASLPFGWLVIGVA
6. ASLPFGWLVIGVAFL
7. WKCKSKNPLLYDANY
8. AGMEAQFLYLYALIY

Result:
[0.2, 0.4, 0.3, 0.2, 0.2, 0.3, 0.3, 0.2]

I would be grateful if you could provide Binding of serum London to linear peptides of protein X1 of SARS-CoV Urbani for each of the following entries.
1. QFICNLLLLFVTIYS
2. EGDGISTPKLKEDYQ
3. LYALIYFLQCINACR
4. LYKGFQFICNLLLLF
5. YKGFQFICNLLLLFV

Result:
1: 0.2; 2: 0.3; 3: 0.3; 4: 0.2; 5: 0.8

* * *

Kindly state Binding of serum SARS-yellow to linear peptides of protein X5 of SARS-CoV Urbani for each of the entries shown.
test system: antibodies in sera from SARS patients (sera 1a, 1b, 2, 6, 37, 62, London, SARS-yellow, SARS-green); assay type: binding, human
One number for each entry.

| sequence.data | value.reported |
| --- | --- |
| VRYNTRGNTYSTAWL | 0.4 |
| ILVRYNTRGNTYSTA | 0.2 |
| STAWLCALGKVLPFH | 0.3 |

Shifting focus to the sequence that follows.
Task: Binding of serum SARS-yellow to linear peptides of protein X5 of SARS-CoV Urbani lookup needed for RYNTRGNTYSTAWLC , thanks.
Result: 0.2

* * *

test system: antibodies in sera from SARS patients (sera 1a, 1b, 2, 6, 37, 62, London, SARS-yellow, SARS-green); assay type: binding, human; design: unit not given here
readout.name: Binding of serum London to looped/cyclic peptides of protein N of SARS-CoV Urbani
Answers are plain numbers.

| sequence.data | value.reported |
| --- | --- |
| QYNVTQAFGRRGPEQ | 0.5 |
| IVWVATEGALNTPKD | 0.3 |
| MEVTPSGTWLTYHGA | 0.5 |
| NTNSGPDDQIGYYRR | 0.5 |
| VILLNKHIDAYKTFP | 0.4 |

Would you mind giving Binding of serum London to looped/cyclic peptides of protein N of SARS-CoV Urbani for every sequence in the list below?
1. PQIAQFAPSASAFFG
2. LTQHGKEELRFPRGQ
3. KGQQQQGQTVTKKSA

Result:
1: 0.5; 2: 0.4; 3: 0.3

Measured values drawn from patent US20070128217A1 for this set.
